target: T1, recombinant biotinylated CD71 extracellular domain (Sino Biologics) with an N-terminal 6His tag (human, UniProt P02786 89-760, biotinylated (sites not given)); experiment: screening ELISA
T1 construct: extracellular domain; also called hCD71; huCD71
T1 sequence (P02786 other isoform, or with tags, fused parts or gaps): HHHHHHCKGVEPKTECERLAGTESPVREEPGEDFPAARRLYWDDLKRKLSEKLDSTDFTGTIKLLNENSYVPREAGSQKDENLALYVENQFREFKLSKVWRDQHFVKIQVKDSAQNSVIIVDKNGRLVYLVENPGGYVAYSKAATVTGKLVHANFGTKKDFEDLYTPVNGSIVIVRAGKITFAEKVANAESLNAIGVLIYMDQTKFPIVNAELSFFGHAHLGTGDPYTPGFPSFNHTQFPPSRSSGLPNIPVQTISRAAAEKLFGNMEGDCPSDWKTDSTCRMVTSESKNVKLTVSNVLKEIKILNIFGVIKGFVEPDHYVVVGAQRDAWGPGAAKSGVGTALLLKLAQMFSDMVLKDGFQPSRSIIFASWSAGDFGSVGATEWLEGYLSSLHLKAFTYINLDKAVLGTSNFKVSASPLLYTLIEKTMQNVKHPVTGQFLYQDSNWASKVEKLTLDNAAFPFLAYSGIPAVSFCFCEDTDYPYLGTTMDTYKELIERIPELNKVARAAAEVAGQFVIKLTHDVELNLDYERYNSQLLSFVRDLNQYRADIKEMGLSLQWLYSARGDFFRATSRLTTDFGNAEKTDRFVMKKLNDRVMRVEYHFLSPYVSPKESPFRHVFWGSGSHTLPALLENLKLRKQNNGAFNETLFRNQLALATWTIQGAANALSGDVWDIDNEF
propertyName: hCD71

I = SEQ ID NO 124 (designed binder, FN3 domain) MLPAPKNLVVSRVTEDSARLSWTAPDAAFDSFSIDYPEFPVRGEAIVLTVPGSERSYDLTGLKPGTEYAVTIWGVKGGFTSQPLSAIFTT
II = SEQ ID NO 186 (designed binder, FN3 domain) MLPAPKNLVVSRVTEDSARLSWTAPDAAFDSFFIGYLESAEAIVLTVPGSERSYDLTGLKPGTEYLVTIQGVKGGIASDPLSAIFTT
III = SEQ ID NO 281 (designed binder, FN3 domain) MLPAPKNLVVSRVTEDSARLSWTAPDAAFDSFYIDYDEIHDWGEAIVLTVPGSERSYDLTGLKPGTEYAVQIGGVKGGSFSWTLSAIFTT
IV = SEQ ID NO 168 (designed binder, FN3 domain) MLPAPKNLVVSRVTEDSARLSWTTPDAAFDSFFIGYLEPYPPGEAIVLTVPGSERSYDLTGLKPGTEYVVSIQGVKGGKPSDPLSAIFTT
Query :: In this exercise, place the 4 binders in ascending sequence of their recorded hCD71. Kindly provide the labels arranged according to the requested ordering.
Result :: I, III, II, IV
